- Assay Protocol: TLR3 IRF3 reporter activation blockers – cell-based, poly I:C stimulus, luciferase, 10K MLSCN set, primary screen (AID 602277)
- Experimental Setup: HEK293-TLR3 RL24 IRF3 luciferase reporter, at 10 µM
Calls of active or inactive are those of the source.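 How the source made its calls: active means inhibition of the reporter signal at or above 50%; inactive means inhibition below 50%.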
Possible outcomes: active, inactive

• COc1ccc(-n2nc(C(=O)Nc3ccc4c(c3)OCO4)c3c4ccccc4n(C)c3c2=O)cc1 = inactive
• COc1ccc(NC(=O)c2cnc3n(c2=O)CCS3)cc1OC = inactive
• Cc1cc(NC(=O)c2cc(-c3ccco3)on2)n(-c2ccccc2)n1 = inactive
• Cn1cc(Cl)c(C(=O)N(Cc2ccccc2)c2ccccn2)n1 = inactive
• COc1ccc(OC)c(Nc2cc(-c3ccccc3)nc(N)n2)c1 = active
• COc1ccc(CC(=O)OCn2nnc3ccccc3c2=O)cc1 = inactive
• CCOc1ccc(NC2c3ccccc3C(=O)N2Cc2ccco2)cc1 (stereo unspecified) = inactive
• O=C(CSc1nnc2sc3ccccc3n12)c1ccco1 = inactive
• O=C(CSc1nc2ccccc2c(=O)n1CCC(=O)N1CCCCC1)NCc1ccccc1 = inactive
• c1ccc(-n2nnnc2OCCOc2nnnn2-c2ccccc2)cc1 = inactive
• CCOc1ccc(C(=O)N(Cc2ccc(N(C)C)cc2)C2CCS(=O)(=O)C2)cc1 (stereo unspecified) = inactive
